Just for reference, patent US12187746B2 is where these values come from.

Test system: P-Akt (S473)
Assay: Cell based AlphaLISA assay, inhibition of P-Akt (S473) in MDA-MB-468 cells
Conditions: Homo sapiens, 4 h, 0.017-1,000 nM, two to four hours at 37° C., AlphaLisa SureFire Ultra, read-out: pIC50 for Inhibition of mTORC1 and mTORC2 Substrate Phosphorylation, p-AKT1/2/3-(S473) (converted)
QUANTITY KIND: IC50

Look at this molecule and give its reported IC50. CO[C@H]1C[C@@H]2CC[C@@H](C)[C@@](O)(O2)C(=O)C(=O)N2CCCC[C@H]2C(=O)O[C@H]([C@H](C)C[C@@H]2CC[C@@H](O)[C@H](OC)C2)C[C@@H](O)[C@H](C)/C=C(\C)[C@@H](O)[C@@H](OC)C(=NOCC(=O)NCc2cnc(N3CCN(C(=O)CCOCCN4CCN(c5ncc(C(=O)N6CCC(n7nc(-c8ccc9oc(N)nc9c8)c8c(N)ncnc87)CC6)cn5)CC4)CC3)nc2)[C@H](C)C[C@H](C)/C=C/C=C/C=C/1C [Example 32]
3.16 to 31.6 nM

###

Record form. Attribute: IC50. Fill in for each entry.
System: P-4E-BP1 (T37/46)
Test: Cell based AlphaLISA assay, inhibition of P-4E-BP1 (T37/46) in MDA-MB-468 cells
Details: Homo sapiens, 4 h, 0.017-1,000 nM, two to four hours at 37° C., AlphaLisa SureFire Ultra, read-out: pIC50 for Inhibition of mTORC1 and mTORC2 Substrate Phosphorylation, p-4E-BP1-(T37/46) (converted)

| TEST SMILES | TESTED ON | IC50 |
| --- | --- | --- |
| CO[C@H]1C[C@@H]2CC[C@@H](C)[C@@](O)(O2)C(=O)C(=O)N2CCCC[C@H]2C(=O)O[C@H]([C@H](C)C[C@@H]2CC[C@@H](O)[C@H](OC)C2)C[C@@H](O)[C@H](C)/C=C(\C)[C@@H](O)[C@@H](OC)C(=NOCC(=O)N2CCc3nc(N4CCN(c5ncc(C(=O)NCCOCCOCCC(=O)NCCCCn6nc(-c7ccc8oc(N)nc8c7)c7c(N)ncnc76)cn5)CC4)ncc3C2)[C@H](C)C[C@H](C)/C=C/C=C/C=C/1C | P-4E-BP1 (T37/46) | 3.16 to 31.6 nM |

Turning now to a further compound:
Tell me the measured IC50 of COc1ccc(-c2ccc3ncc4c(c3c2)n(-c2ccc(N3CCN(c5ncc(CNC(=O)CCOCCOCCOCCOCCOCCOCCNC(=O)CON=C6[C@H](C)C[C@H](C)/C=C/C=C/C=C(\C)[C@@H](OC)C[C@@H]7CC[C@@H](C)[C@@](O)(O7)C(=O)C(=O)N7CCCC[C@H]7C(=O)O[C@H]([C@H](C)C[C@@H]7CC[C@@H](O)[C@H](OC)C7)C[C@@H](O)[C@H](C)/C=C(\C)[C@@H](O)[C@H]6OC)cn5)CC3)c(C(F)(F)F)c2)c(=O)n4C)cn1 , please.
3.16 to 31.6 nM

###

Test system: P-Akt (S473)
Assay: Cell based AlphaLISA assay, inhibition of P-Akt (S473) in MDA-MB-468 cells
Conditions: Homo sapiens, 4 h, 0.017-1,000 nM, two to four hours at 37° C., AlphaLisa SureFire Ultra, read-out: pIC50 for Inhibition of mTORC1 and mTORC2 Substrate Phosphorylation, p-AKT1/2/3-(S473) (converted)
QUANTITY KIND: IC50

Write down the reported IC50 of CO[C@H]1C[C@@H]2CC[C@@H](C)[C@@](O)(O2)C(=O)C(=O)N2CCCC[C@H]2C(=O)O[C@H]([C@H](C)C[C@@H]2CC[C@@H](O)[C@H](OC)C2)C[C@@H](O)[C@H](C)/C=C(\C)[C@@H](O)[C@@H](OC)C(=NOCC(=O)NCc2cnc(N3CCN(C(=O)CCOCCN4CCN(C(=O)CN(C)CC(=O)N5CCc6cc(Cn7nc(-c8ccc9oc(N)nc9c8)c8c(N)ncnc87)ccc6C5)CC4)CC3)nc2)[C@H](C)C[C@H](C)/C=C/C=C/C=C/1C , test system: P-Akt (S473).
> 1000 nM
